Just for reference, patent EP4703354A1 is where these values come from.

assay: in vivo pharmacokinetic study in SD rats; details: rat, in vivo, 1 mg/kg PO vs 1 mg/kg IV, read-out: Oral bioavailability F (%)
Catalogue of bioavailability values
Report only the number, with the unit % understood.

For orientation, consider the following solved cases.
> print(dat)
                                   compound  measurement.kind  value.measured
1  CN(C)C(=O)c1nccc(Nc2c(NC(C#CC3CCC3)C3(C)CC(F)(F)CO3)c(=O)c2=O)c1O (stereo not drawn)   bioavailability            60.2
2  CN(C)C(=O)c1nccc(Nc2c(NC(c3nc(C(F)(F)F)ccc3F)C3(C)CC(F)(F)CO3)c(=O)c2=O)c1O (stereo not drawn)   bioavailability            21.6

# evaluate next
# input compound: Cc1cccnc1C(Nc1c(Nc2ccnc(C(=O)N(C)C)c2O)c(=O)c1=O)C1(C)CCC(F)(F)C1 (single isomer, unassigned) [125B] ; wanted: its bioavailability 136

---

target: human CCR6 (Homo sapiens); experiment: human CCR6 calcium flux activity (FLIPR, HEK293 cells stably expressing human CCR6, CCL20 stimulation); conditions: HEK293 cells stably expressing human CCR6, EC80 human MIP-3 alpha/CCL20; read-out: CCR6 inhibitory activity, IC50
Sequence (P51684 whole entry): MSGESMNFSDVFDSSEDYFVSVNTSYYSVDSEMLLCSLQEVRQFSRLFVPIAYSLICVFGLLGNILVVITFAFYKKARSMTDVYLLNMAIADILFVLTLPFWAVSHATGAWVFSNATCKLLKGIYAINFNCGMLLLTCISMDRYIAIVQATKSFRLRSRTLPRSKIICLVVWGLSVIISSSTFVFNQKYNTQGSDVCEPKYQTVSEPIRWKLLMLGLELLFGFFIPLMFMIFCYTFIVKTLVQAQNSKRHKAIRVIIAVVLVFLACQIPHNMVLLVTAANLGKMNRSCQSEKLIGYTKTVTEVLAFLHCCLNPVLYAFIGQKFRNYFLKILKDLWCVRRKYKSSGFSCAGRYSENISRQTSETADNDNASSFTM
Catalogue of IC50 values
Report only the number, with the unit nM understood.

For orientation, consider the following solved cases.
> print(dat)
                                   molecule           target.or.system  measurement.kind  value.measured
1  CN(C)C(=O)c1nccc(Nc2c(NC(c3nn(C)c4c3COC4)C3(C)CCCC3)c(=O)c2=O)c1O (centres unmarked) [compound 027]  human CCR6 (Homo sapiens)              IC50            1370
2  CN(C)C(=O)c1nccc(Nc2c(N[C@@H](c3ncc(F)cc3Cl)C3(C)CCCC3)c(=O)c2=O)c1O [compound 011]  human CCR6 (Homo sapiens)              IC50            22.5
3  CN(C)C(=O)c1nccc(Nc2c(N[C@@H](C#CC3CCC3)C3(C)CCCC3)c(=O)c2=O)c1O [compound 116]  human CCR6 (Homo sapiens)              IC50            28.9
4  CN(C)C(=O)c1nccc(Nc2c(N[C@@H](c3ccc(F)c(F)n3)C3(C)CCCC3)c(=O)c2=O)c1O [compound 024]  human CCR6 (Homo sapiens)              IC50            47.4

# input molecule: Cc1cc(F)cnc1[C@H](Nc1c(Nc2ccnc(C(=O)N(C)C)c2O)c(=O)c1=O)[C@]1(C)CC(F)(F)CO1 [093A] ; wanted: its IC50 17.1

# input molecule: Cc1cccnc1C(Nc1c(Nc2ccnc(C(=O)N(C)C)c2O)c(=O)c1=O)C1(C)CCC2CC21 (centres unmarked) [compound 123] ; wanted: its IC50 265

# input molecule: CN(C)C(=O)c1nccc(Nc2c(NC(c3nc(F)ccc3F)C3(C)CC(F)(F)CO3)c(=O)c2=O)c1O (centres unmarked) [compound 062] ; wanted: its IC50 32.9

# input molecule: CN(C)C(=O)c1nccc(Nc2c(N[C@@H](c3cnccn3)C3(C)CCCC3)c(=O)c2=O)c1O [compound 006] ; wanted: its IC50 74

# input molecule: CN(C)C(=O)c1nccc(Nc2c(N[C@@H](c3ccc(Cl)cn3)C3(C)CCCC3)c(=O)c2=O)c1O [compound 013] ; wanted: its IC50 19.3

# input molecule: CN(C)C(=O)c1nccc(Nc2c(N[C@@H](C#CC3CCC3)[C@]3(C)CC(F)(F)CO3)c(=O)c2=O)c1O (single isomer, unassigned) [110A] ; wanted: its IC50 9.3

# input molecule: CN(C)C(=O)c1nccc(Nc2c(N[C@@H](C#CC3CCC3)[C@@]3(C)CC(F)(F)CO3)c(=O)c2=O)c1O (single isomer, unassigned) [110B] ; wanted: its IC50 53.6

# input molecule: CC(C)[C@H](Nc1c(Nc2ccnc(C(=O)N(C)C)c2O)c(=O)c1=O)C1(C)CCCC1 [compound 038] ; wanted: its IC50 113

# input molecule: CN(C)C(=O)c1nccc(Nc2c(NC(C(=O)C3CCC3)C3(C)CCCC3)c(=O)c2=O)c1O (centres unmarked) [compound 035] ; wanted: its IC50 820

# input molecule: CN(C)C(=O)c1nccc(Nc2c(N[C@@H](c3cccc(C(F)F)n3)C3(C)CCCC3)c(=O)c2=O)c1O [compound 107] ; wanted: its IC50 3.8
